Test: reversal of MRP1-mediated doxorubicin resistance, pilot screen, H69AR cells, doxorubicin co-treatment (AID 601)
Details: H69AR cells, CellTiter-Glo, 72 h; compound alone cytotoxicity; at 10 µM
quantity.name: viability (%)

- Nc1nnnn1/N=C/c1ccccn1: 97.2
- Cc1ccc2[nH]c3c(c2c1)CCc1cn[nH]c1-3: 38.4
- Cc1cc(C)c(S(=O)(=O)Nc2cccnc2)c(C)c1: 97.8
- CC(=O)NCCOc1cccc(OCCNC(C)=O)c1: 86.3
- CCN(CC)CCCNC(=O)c1nn(-c2ccc(OC)cc2OC)c(=O)c2ccccc12: 96.1
- COCCNC(=O)C1CCCN(c2ncccn2)C1 (stereo not drawn): 89.8
- CC(NC(=O)COc1ccc(Br)cc1)C(=O)O (stereo not drawn): 91.8
- O=C(CN(CCc1ccccc1)C(=O)CNS(=O)(=O)c1ccccc1)NCC1CCCO1 (stereo not drawn): 102

* * *

Test: viability gain of MRP-1-high H69AR cells under doxorubicin, pilot screen, MRP-1 activator project, CellTiter-Glo, duplicate (AID 807);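 also: compound pretreatment 18-22 h then 72 h combined with doxorubicin; 0% = doxorubicin alone and 100% = vehicle without doxorubicin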
Conditions: H69AR viability with doxorubicin, CellTiter-Glo luminescence; at 10 µM; stronger effect = higher value
Parameter: viability increase. Scope: all listed entries.
quantity.name: viability increase (%)

• CCCCCn1c(NC2CCCCC2)nc2c1c(=O)[nH]c(=O)n2C = -3.48
• CCN1CCN(Cc2nc3c(c(=O)n(C)c(=O)n3C)n2C(C)C(C)=O)CC1 (stereo not drawn) = -1.83
• COc1cc2[nH]c(=O)n(CCCC(=O)N3CC=C(c4ccccc4)CC3)c(=O)c2cc1OC = -4.59
• CCc1cc(=O)oc2cc(OCC(=O)OC)c(Cl)cc12 = -2.39
• CCCCNC(=O)NS(=O)(=O)c1ccc(NS(=O)(=O)c2ccccc2)cc1 = -0.52
• CCOC(=O)N1CCN(C(=O)c2oc3ccc(S(=O)(=O)N4CCCCCC4)cc3c2C)CC1 = -4.29
• CCCSc1n[nH]c(NC(C)=O)n1 = -0.65
• Cc1ccsc1C(=O)OCC(=O)c1cc2ccccc2o1 = -2.86
• CCC(=O)N1CCc2cc(Br)cc(S(=O)(=O)CCC(=O)NCc3ccco3)c21 = -4.1
• Cc1ccc(S(=O)(=O)N2CCN(C(=O)CN3CCCC3)C2)cc1 = -0.87
• CCNc1cc2oc(=O)c(CN3CCOCC3)c(C)c2cc1C = -1.46
• Cc1ccc(S(=O)(=O)NC(=O)Nn2c(C)nnc2C)cc1 = -0.15
• O=C(O)C1C2C=CC(C2)C1C(=O)NCCc1cccc(Cl)c1 (stereo not drawn) = -1.41
• NS(=O)(=O)c1ccc(CCNC(=O)C2CCCN(S(=O)(=O)c3cccnc3)C2)cc1 (stereo not drawn) = -0.63
• CCCCCSc1nnc2c(n1)OC(C)N(C(C)=O)c1ccccc1-2 (stereo not drawn) = -4.28
• Cn1c(C(=O)N2CCN(c3ncccn3)CC2)cc2c(=O)n(C)c3ccccc3c21 = 2.83
• O=C(NCc1ccccc1)c1ccc(CN2CCOCC2)cc1 = -0.24
• COc1ccccc1Nc1nc2ccccc2n1C = 0.31
• C=C(C)Cn1c(CCNC(=O)C(C)(C)C)nc2ccccc21 = 0.45
• CCC(=O)N1CCc2cc(Br)cc(S(=O)(=O)N3CCN(c4ccccn4)CC3)c21 = -2.05
• CC(=O)c1c(C)oc(C)c1CSCc1ccc(C(=O)O)o1 = -2.16
• CC(C)Cn1c(SCC(=O)NC2CCCc3ccccc32)nc(O)cc1=O (stereo not drawn) = -2.62
• Cn1c(=O)oc2cc(S(=O)(=O)Nc3cccc(F)c3)ccc21 = -0.69

Value source: PubChem BioAssay
